assay: Antagonist activity at CCR2 receptor in human THP1 cells assessed as inhibition of MCP-1 induced chemotaxis after 3 hrs
pIC50: −log10 of the molar value.
Decide by pIC50: equal to or exceeding 7 means true, less means false.

Field: example entries. Status: answers known.
                                   compound  class_assignment
0  COC1COCCC1N[C@@H]1C[C@H]2CN(C(=O)OCC(C)C)C[C@@]2(C(=O)N2CCc3ncc(C(F)(F)F)cc3C2)C1 (stereo partly drawn)              true
1  COC1COCCC1N[C@@H]1C[C@H]2CN(C(C)=O)C[C@@]2(C(=O)N2CCc3ncc(C(F)(F)F)cc3C2)C1 (stereo partly drawn)             false
2  COC1COCCC1N[C@@H]1C[C@H]2CN(C(=O)OCc3ccccc3)C[C@@]2(C(=O)N2CCc3ncc(C(F)(F)F)cc3C2)C1 (stereo partly drawn)             false

Please examine the following record next.
Please indicate if the recorded pIC50 for COC1COCCC1N[C@@H]1C[C@H]2CN(C(=O)OCCN3CCCC3)C[C@@]2(C(=O)N2CCc3ncc(C(F)(F)F)cc3C2)C1 (stereo partly drawn) meets or exceeds 7. true

* * *

test: Antagonist activity at CCR2 receptor in human THP1 cells assessed as inhibition of MCP-1 induced chemotaxis after 3 hrs
Listing of entries alongside the reported IC50.
Report the figure in µM without appending any unit label.

>>> df
                                   compound  observable  recorded_value
0  COC1COCCC1N[C@@H]1C[C@H]2CN(C(=O)OCCN3CCOCC3)C[C@@]2(C(=O)N2CCc3ncc(C(F)(F)F)cc3C2)C1 (some centres undefined)        IC50           0.097
1  COC1COCCC1N[C@@H]1C[C@H]2CN(C(N)=NC#N)C[C@@]2(C(=O)N2CCc3ncc(C(F)(F)F)cc3C2)C1 (some centres undefined)        IC50           0.029
2  COC(=O)N1C[C@@H]2C[C@@H](NC3CCOCC3OC)C[C@]2(C(=O)N2CCc3ncc(C(F)(F)F)cc3C2)C1 (some centres undefined)        IC50           0.069

Now take the following compound into account.
If you can, please state the reported IC50 value of COC1COCCC1N[C@@H]1C[C@H]2CN(C(=O)OCCNC(C)=O)C[C@@]2(C(=O)N2CCc3ncc(C(F)(F)F)cc3C2)C1 (some centres undefined) . 0.018

* * *

test: Antagonist activity at CCR2 receptor in human THP1 cells assessed as inhibition of MCP-1 induced chemotaxis after 3 hrs
Field: label. Allowed values: fulfilled (IC50 < 80 nM) or not fulfilled (IC50 >= 80 nM).

Field: example entries. Status: answers known.
>>> df
                                   compound  class_assignment
0  COC1COCCC1N[C@@H]1C[C@H]2CN(C(=O)OCC3CCOCC3)C[C@@]2(C(=O)N2CCc3ncc(C(F)(F)F)cc3C2)C1 (some centres not stated)         fulfilled
1  COCCOC(=O)N1C[C@@H]2C[C@@H](NC3CCOCC3OC)C[C@]2(C(=O)N2CCc3ncc(C(F)(F)F)cc3C2)C1 (some centres not stated)         fulfilled
2  COC1COCCC1N[C@@H]1C[C@H]2CN(C(=O)NCc3ccccc3)C[C@@]2(C(=O)N2CCc3ncc(C(F)(F)F)cc3C2)C1 (some centres not stated)     not fulfilled
3  COC1COCCC1N[C@@H]1C[C@H]2CN(C(=O)C#CC3CC3)C[C@@]2(C(=O)N2CCc3ncc(C(F)(F)F)cc3C2)C1 (some centres not stated)         fulfilled
4  COC1COCCC1N[C@@H]1C[C@H]2CN(C(N)=O)C[C@@]2(C(=O)N2CCc3ncc(C(F)(F)F)cc3C2)C1 (some centres not stated)         fulfilled

Please examine the following record next.
For COC1COCCC1N[C@@H]1C[C@H]2CN(C(=O)Oc3ccccc3)C[C@@]2(C(=O)N2CCc3ncc(C(F)(F)F)cc3C2)C1 (some centres not stated) , is the recorded IC50 below the cut-off of 80 nM? not fulfilled

* * *

test: Antagonist activity at CCR2 receptor in human THP1 cells assessed as inhibition of MCP-1 induced chemotaxis after 3 hrs
OBSERVABLE: IC50 (nM)
Report the figure in nM without appending any unit label.

If you can, please state the reported IC50 value of CNC(=O)N1C[C@@H]2C[C@@H](NC3CCOCC3OC)C[C@]2(C(=O)N2CCc3ncc(C(F)(F)F)cc3C2)C1 (some centres undefined) . 71

If you can, please state the reported IC50 value of COC1COCCC1N[C@@H]1C[C@H]2CN(C(=O)OCC(C)(C)C)C[C@@]2(C(=O)N2CCc3ncc(C(F)(F)F)cc3C2)C1 (some centres undefined) . 99

If you can, please state the reported IC50 value of COC1COCCC1N[C@@H]1C[C@H]2CN(c3ccccc3)C[C@@]2(C(=O)N2CCc3ncc(C(F)(F)F)cc3C2)C1 (some centres undefined) . 90

If you can, please state the reported IC50 value of COC1COCCC1N[C@@H]1C[C@H]2CN(C(=O)/C=C/C(C)(C)C)C[C@@]2(C(=O)N2CCc3ncc(C(F)(F)F)cc3C2)C1 (some centres undefined) . 88
